- method_description: Cytotoxicity, tetrazolium dye assay, growing HEL monolayers
- Format: cell-based
- experimental_conditions: human, growing HEL fibroblast monolayers
assay_readout: CC50 at 72 h

[[record]]
smiles = "O=c1c(-c2ccc(O)cc2)coc2cc(O)ccc12"
endpoint_value = "> 200 µM"

[[record]]
smiles = "O=c1cc(-c2ccc(O)cc2)oc2cc(O)cc(O)c12"
endpoint_value = "> 100 µM"

[[record]]
smiles = "O=c1cc(-c2ccccc2)oc2cc(O)c(O)c(O)c12"
endpoint_value = "> 100 µM"

[[record]]
smiles = "O=c1cc(-c2ccc(O)c(O)c2)oc2cc(O)cc(O)c12"
endpoint_value = "62 µM"

[[record]]
smiles = "O=c1c(O)c(-c2ccc(O)c(O)c2)oc2cc(O)cc(O)c12"
endpoint_value = "> 400 µM"

[[record]]
smiles = "O=C(O)[C@H]1O[C@@H](Oc2cc3oc(-c4ccccc4)cc(=O)c3c(O)c2O)[C@H](O)[C@@H](O)[C@@H]1O"
endpoint_value = "> 400 µM"

[[record]]
smiles = "O=c1c(-c2ccc(O)cc2)coc2cc(O)cc(O)c12"
endpoint_value = "124 µM"

[[record]]
smiles = "O=C1C[C@@H](c2ccc(O)cc2)Oc2cc(O)cc(O)c21"
endpoint_value = "> 100 µM"


Endpoint output: CC50 at 72 h of `O=c1c(O)c(-c2ccccc2)oc2cc(O)cc(O)c12` . Value? > 400 µM
